Cited source for all entries: ChEMBL document CHEMBL2163222

As shown below, each of these compounds has a reported IC50 value.
tested on: Hs 683; test: cells; conditions: Homo sapiens, Hs 683, 72 h
OBSERVED PROPERTY: IC50 (µM)

• Cc1c2c(cc[n+]1CCC(C)C)c1ccc(OCc3ccccc3)cc1n2Cc1ccccc1 = 0.37
• CCCn1c2cc(OCc3ccccc3)ccc2c2ccnc(C)c21 = 13
• Cc1c2c(cc[n+]1CCO)c1ccc(OCc3ccccc3)cc1n2Cc1ccccc1 = 31
• Cc1nccc2c1[nH]c1cc(OCc3ccncc3)ccc12 = 8.1
• Cc1c2c(cc[n+]1CCC(C)C)c1ccc(OCC3CCCCC3)cc1n2CC1CCCCC1 = 0.42
• Cc1nccc2c1[nH]c1cc(OCc3ccccc3)ccc12 = 17

###

As shown below, each of these compounds has a reported IC50 value.
target: Dual specificity tyrosine-phosphorylation-regulated kinase 1A (Homo sapiens, UniProt Q13627)
OBSERVED PROPERTY: IC50 (µM)

• Cc1c2c(cc[n+]1Cc1ccccc1)c1ccc(OCC3CCCCC3)cc1n2CC1CCCCC1.[Br-] = 43
• COCCOc1ccc2c(c1)[nH]c1c(C)nccc12 = 16
• Cc1nccc2c1[nH]c1cc(OCc3cccnc3)ccc12 = 10

###

As shown below, each of these molecules has a reported pIC50 value.
test system: OE33; assay: Growth inhibition of human OE33 cells after 3 days by MTT assay; type: functional, cell-based; settings: OE33, 72 h
pIC50: −log10 of the molar value.
OBSERVED PROPERTY: pIC50

- COc1ccc2c(c1)[nH]c1c(C)nccc12: 4.74
- COCCOc1ccc2c(c1)[nH]c1c(C)nccc12: 4.18
- CCCn1c2cc(OCc3ccccc3)ccc2c2cc[n+](Cc3ccc(F)cc3)c(C)c21: 6.00
- Cc1c2c(cc[n+]1Cc1ccc(F)cc1)c1ccc(OCc3ccc(F)cc3)cc1n2Cc1ccc(F)cc1: 5.51
- Cc1c2[nH]c3cc(OCc4ccccc4)ccc3c2cc[n+]1Cc1ccccc1: 5.26

###

system: OE33; assay: Growth inhibition of human OE33 cells after 3 days by MTT assay; assay type: functional, cell-based; conditions: OE33, 72 h
# if measured IC50 < 20 µM: 1  # else: -1

• Cc1nccc2c3ccc(OCc4cccc(F)c4)cc3n(Cc3cccc(F)c3)c12 = 1
• Cc1c2c(cc[n+]1Cc1ccccc1)c1ccc(OCc3ccc(F)cc3)cc1n2Cc1ccc(F)cc1 = 1
• Cc1nccc2c1[nH]c1cc(OCC3CCCCC3)ccc12 = 1
• Cc1nccc2c1[nH]c1cc(OCc3cccnc3)ccc12 = -1
• Cc1nccc2c3ccc(O)cc3n(Cc3ccccc3)c12 = -1
• C=CCOc1ccc2c(c1)[nH]c1c(C)nccc12 = -1
• Cc1c2c(cc[n+]1Cc1ccccc1F)c1ccc(OCC3CCCCC3)cc1n2CC1CCCCC1 = 1
• Cc1nccc2c1[nH]c1cc(OCc3ccccn3)ccc12 = -1
• Cc1nccc2c1[nH]c1cc(OCc3ccccc3)ccc12 = 1
• Cc1c2c(cc[n+]1Cc1ccccc1F)c1ccc(OCc3cccc(F)c3)cc1n2Cc1cccc(F)c1 = 1
• Cc1nccc2c1[nH]c1cc(OCc3ccncc3)ccc12 = 1
• Cc1c2c(cc[n+]1Cc1ccc(F)cc1)c1ccc(OCc3cccc(F)c3)cc1n2Cc1cccc(F)c1.[Br-] = 1
• Cc1nccc2c1[nH]c1cc(OCCO)ccc12 = -1
• Cc1c2c(cc[n+]1Cc1ccccc1F)c1ccc(OCc3ccccc3)cc1n2Cc1ccccc1 = 1
• Cc1nccc2c3ccc(OCc4ccc(F)cc4)cc3n(Cc3ccc(F)cc3)c12 = -1
• Cc1nccc2c1[nH]c1cc(OCCc3ccccc3)ccc12 = 1
• Cc1c2c(cc[n+]1Cc1ccccc1)c1ccc(OCC3CCCCC3)cc1n2CC1CCCCC1.[Br-] = 1
• Cc1nccc2c3ccc(OCc4ccccc4)cc3n(Cc3ccccc3)c12 = -1
• Cc1c2c(cc[n+]1Cc1ccc(F)cc1)c1ccc(OCc3ccccc3)cc1n2Cc1ccccc1 = 1
• Cc1c2c(cc[n+]1Cc1ccccc1)c1ccc(OCc3cccc(F)c3)cc1n2Cc1cccc(F)c1 = 1
• Cc1c2c(cc[n+]1Cc1ccccc1)c1ccc(OCc3ccccc3)cc1n2Cc1ccccc1.[Br-] = 1

###

system: Hs 683; assay: cells; conditions: Homo sapiens, Hs 683, 72 h
pIC50: −log10 of the molar value.
OBSERVED PROPERTY: pIC50

- Cc1nccc2c3ccc(OCc4ccccc4)cc3n(Cc3ccccc3)c12: 4.48
- Cc1c2c(cc[n+]1CCO)c1ccc(OCC3CCCCC3)cc1n2CC1CCCCC1: 5.42
- Cc1nccc2c3ccc(O)cc3n(Cc3ccccc3)c12: 4.10
- Cc1c2c(cc[n+]1Cc1ccccc1)c1ccc(OCc3ccccc3)cc1n2Cc1ccccc1.[Br-]: 6.30
- Cc1c2c(cc[n+]1Cc1ccc(F)cc1)c1ccc(OCc3ccccc3)cc1n2Cc1ccccc1: 5.80
- Cc1nccc2c3ccc(OCc4ccc(F)cc4)cc3n(Cc3ccc(F)cc3)c12: 4.77
- CCCn1c2cc(OCc3ccccc3)ccc2c2cc[n+](Cc3ccccc3)c(C)c21: 5.59
- Cc1nccc2c1[nH]c1cc(OCCc3ccccc3)ccc12: 4.68
- Cc1nccc2c1[nH]c1cc(OCc3cccc4ccccc34)ccc12: 4.72
- Cc1c2c(cc[n+]1Cc1ccc(F)cc1)c1ccc(OCc3ccc(F)cc3)cc1n2Cc1ccc(F)cc1: 4.89
- Cc1nccc2c1[nH]c1cc(OCc3cccnc3)ccc12: 4.52
- Cc1c2c(cc[n+]1Cc1ccccc1F)c1ccc(OCc3ccc(F)cc3)cc1n2Cc1ccc(F)cc1: 5.92
- Cc1nccc2c1[nH]c1cc(OCC(C)C)ccc12: 4.64
- Cc1nccc2c1[nH]c1cc(OCC3CCCCC3)ccc12: 4.66
- Cc1c2c(cc[n+]1CCO)c1ccc(OCCC(C)C)cc1n2CCC(C)C: 5.40
- Cc1nccc2c3ccc(OCCC(C)C)cc3n(CCC(C)C)c12: 4.52
- Cc1nccc2c3ccc(OCC4CCCCC4)cc3n(CC3CCCCC3)c12: 4.52
- Cc1c2c(cc[n+]1Cc1ccccc1)c1ccc(OCCC(C)C)cc1n2CCC(C)C: 6.33
- Cc1c2c(cc[n+]1Cc1ccc(F)cc1)c1ccc(OCC3CCCCC3)cc1n2CC1CCCCC1: 5.51
- COCCOc1ccc2c(c1)[nH]c1c(C)nccc12: 4.28
- Cc1nccc2c1[nH]c1cc(OCc3ccccn3)ccc12: 4.70
- Cc1c2c(cc[n+]1Cc1ccccc1F)c1ccc(OCc3cccc(F)c3)cc1n2Cc1cccc(F)c1: 5.66

###

experiment: Growth inhibition of human OE21 cells after 3 days by MTT assay; format: functional, cell-based; settings: OE21, 72 h
# if measured IC50 < 6 µM: criterion met  # else: criterion not met

* Cc1c2c(cc[n+]1CCC(C)C)c1ccc(OCCC(C)C)cc1n2CCC(C)C | criterion met
* Cc1nccc2c1[nH]c1cc(OC(=O)c3ccccc3)ccc12 | criterion not met
* Cc1nccc2c1[nH]c1cc(OCC3CCCCC3)ccc12 | criterion not met
* Cc1c2c(cc[n+]1Cc1ccc(F)cc1)c1ccc(OCc3cccc(F)c3)cc1n2Cc1cccc(F)c1.[Br-] | criterion met
* Cc1c2c(cc[n+]1Cc1ccccc1F)c1ccc(OCc3ccccc3)cc1n2Cc1ccccc1 | criterion met
* CCCCCC[n+]1ccc2c3ccc(OCc4ccccc4)cc3n(Cc3ccccc3)c2c1C | criterion met
* C=CCOc1ccc2c(c1)[nH]c1c(C)nccc12 | criterion not met
* Cc1nccc2c3ccc(OCc4cccc(F)c4)cc3n(Cc3cccc(F)c3)c12 | criterion not met
* CCC[n+]1ccc2c3ccc(OCc4ccccc4)cc3n(Cc3ccccc3)c2c1C | criterion met
* Cc1nccc2c1[nH]c1cc(OCc3cccc4ccccc34)ccc12 | criterion not met
* Cc1nccc2c1[nH]c1cc(OCCCC(F)(F)F)ccc12 | criterion not met
* Cc1c2c(cc[n+]1CCC(C)C)c1ccc(OCc3ccccc3)cc1n2Cc1ccccc1 | criterion met
* Cc1nccc2c1[nH]c1cc(OCc3ccccn3)ccc12 | criterion not met
* Cc1nccc2c1[nH]c1cc(OCc3cccnc3)ccc12 | criterion not met
* Cc1nccc2c1[nH]c1cc(OCCc3ccccc3)ccc12 | criterion not met
* Cc1nccc2c1[nH]c1cc(OCCO)ccc12 | criterion not met
* Cc1nccc2c3ccc(O)cc3n(Cc3ccccc3)c12 | criterion not met
* Cc1nccc2c1[nH]c1cc(OCC(C)C)ccc12 | criterion not met
* COCCOc1ccc2c(c1)[nH]c1c(C)nccc12 | criterion not met
* Cc1c2c(cc[n+]1Cc1ccc(F)cc1)c1ccc(OCC3CCCCC3)cc1n2CC1CCCCC1 | criterion met
* CCCn1c2cc(OCc3ccccc3)ccc2c2cc[n+](Cc3ccccc3F)c(C)c21 | criterion met
* Cc1nccc2c3ccc(OCCC(C)C)cc3n(CCC(C)C)c12 | criterion not met
* Cc1c2c(cc[n+]1Cc1ccccc1)c1ccc(OCc3ccc(F)cc3)cc1n2Cc1ccc(F)cc1 | criterion met
* Cc1c2c(cc[n+]1Cc1ccccc1)c1ccc(OCC3CCCCC3)cc1n2CC1CCCCC1.[Br-] | criterion met
* Cc1c2c(cc[n+]1Cc1ccccc1F)c1ccc(OCc3cccc(F)c3)cc1n2Cc1cccc(F)c1 | criterion met
* Cc1c2c(cc[n+]1Cc1ccccc1)c1ccc(OCc3ccccc3)cc1n2Cc1ccccc1.[Br-] | criterion met
* Cc1c2c(cc[n+]1CCO)c1ccc(OCc3ccccc3)cc1n2Cc1ccccc1 | criterion not met
